In this section, each of the compounds is paired with its reported BRD4 DSF (ΔTm).
# target or system: BRD4 (Homo sapiens (Human))
# assay notes: BRD4 DSF thermal shift (ΔTm)
# Format: binding
# measurement setup: Table 2
Write your answer as a measured quantity: the number, then the unit.

[
  {
    "smiles notation": "Cc1cnc(Nc2ccc(C3CCN(C)CC3)cc2)cc1Nc1cccc(NS(=O)(=O)C(C)(C)C)c1",
    "target or system": "BRD4 (Homo sapiens (Human))",
    "BRD4 DSF (ΔTm)": "6.3 °C"
  }
]

Problem: Consider the compound `Cc1cnc(Nc2ccc(C3CCN(C)CC3)cc2)nc1Nc1ccc(Cl)c(NS(=O)(=O)C(C)(C)C)c1` and give its measured BRD4 DSF (ΔTm).
Result: 12.3 °C

Problem: Next entry: `Cc1cnc(Nc2ccc(N3CCN(C)CC3)c(F)c2)cc1Nc1ccc2c(c1)N(S(=O)(=O)C(C)(C)C)CC2`
Result: 6.1 °C

Problem: Same again, this time with `Cc1cnc(Nc2ccc(C3CCN(C)CC3)c(F)c2)nc1Nc1ncc2ccn(S(=O)(=O)C(C)(C)C)c2n1`
Result: 8.0 °C

Problem: Please give the result for `Cc1ccc(Nc2nc(Nc3cc(F)c(C4CCN(C)CC4)c(F)c3)ncc2C)cc1NS(=O)(=O)C(C)(C)C` too.
Result: 13.3 °C

Problem: Entry `Cc1cnc(Nc2cc(F)cc(N3CCN(C)CC3)c2)nc1Nc1cccc(NS(=O)(=O)C(C)(C)C)c1` please
Result: 11.1 °C

Problem: Here is the next compound: `Cc1cnc(Nc2cc(F)c(C3CCN(C)CC3)c(F)c2)nc1Nc1ccc(Cl)c(NS(=O)(=O)C(C)(C)C)c1`
Result: 15.2 °C

Problem: Cool, now `Cc1cnc(Nc2ccc(C3CCN(C)CC3)cc2)nc1Nc1cccc(NS(=O)(=O)C(C)(C)C)c1`
Result: 10.6 °C

Problem: Same for `Cc1cnc(Nc2ccc(C3CCN(C)CC3)c(F)c2)nc1Nc1cc(NS(=O)(=O)C(C)(C)C)ncn1`
Result: 0.9 °C

----------
# target or system: BRD4 (Homo sapiens (Human))
# assay notes: BRD4 DSF thermal shift (ΔTm)
# Assay type: binding
# measurement setup: Table 2
# BRD4 DSF (ΔTm) listing for each entry below
Express the result in °C but write the number alone.

Problem: Value wanted: BRD4 DSF (ΔTm) (BRD4 (Homo sapiens (Human))) of entry Cc1cnc(Nc2ccc(C3CCN(C)CC3)c(F)n2)nc1Nc1cccc(NS(=O)(=O)C(C)(C)C)c1 [PN2-117]
Result: 11.0

----------
# target or system: UniProtKB O60885
# assay notes: BRD4 DSF thermal shift (ΔTm)
# Assay type: binding
# measurement setup: Table 2
We label by threshold. Values of BRD4 DSF (ΔTm) strictly beneath 10 °C are satisfied. Values of 10 °C and up are not satisfied.

[
  {
    "smiles notation": "Cc1cnc(Nc2cc(F)c(C3CCN(C)CC3)cn2)nc1Nc1ccc(F)c(NS(=O)(=O)C(C)(C)C)c1",
    "target or system": "UniProtKB O60885",
    "class name": "not satisfied"
  },
  {
    "smiles notation": "Cc1cnc(Nc2cc(F)c(C3CCN(C)CC3)c(F)c2)nc1Nc1ccc2c(c1)N(S(=O)(=O)C(C)(C)C)CC2",
    "target or system": "UniProtKB O60885",
    "class name": "not satisfied"
  },
  {
    "smiles notation": "Cc1cnc(Nc2ccc(C3CCN(C)CC3)c(F)c2)nc1Nc1ccc(Cl)c(NS(=O)(=O)C(C)(C)C)c1",
    "target or system": "UniProtKB O60885",
    "class name": "not satisfied"
  },
  {
    "smiles notation": "CN1CCC(c2ccc(Nc3ncc([N+](=O)[O-])c(Nc4ccc(Cl)c(NS(=O)(=O)C(C)(C)C)c4)n3)cc2F)CC1",
    "target or system": "UniProtKB O60885",
    "class name": "not satisfied"
  },
  {
    "smiles notation": "CN1CCC(c2ccc(Nc3ncc(C(F)F)c(Nc4ccc(Cl)c(NS(=O)(=O)C(C)(C)C)c4)n3)cc2F)CC1",
    "target or system": "UniProtKB O60885",
    "class name": "not satisfied"
  },
  {
    "smiles notation": "Cc1cnc(Nc2cc(F)c(C3CCN(C)CC3)c(F)c2)nc1Nc1cc(NS(=O)(=O)C(C)(C)C)ncn1",
    "target or system": "UniProtKB O60885",
    "class name": "satisfied"
  },
  {
    "smiles notation": "CN1CCC(c2ccc(Nc3ncc(N)c(Nc4ccc(Cl)c(NS(=O)(=O)C(C)(C)C)c4)n3)cc2F)CC1",
    "target or system": "UniProtKB O60885",
    "class name": "satisfied"
  }
]

Okay, now this compound:
Problem: hey, is BRD4 DSF (ΔTm) for `Cc1ccc(Nc2nc(Nc3cc(F)c(C4CCN(C)CC4)cn3)ncc2C)cc1NS(=O)(=O)C(C)(C)C` lower than 10 °C or not?
Result: not satisfied
